target.or.system: human TLR7 (Homo sapiens, UniProt Q9NYK1)
Sequence (Q9NYK1 27-1049): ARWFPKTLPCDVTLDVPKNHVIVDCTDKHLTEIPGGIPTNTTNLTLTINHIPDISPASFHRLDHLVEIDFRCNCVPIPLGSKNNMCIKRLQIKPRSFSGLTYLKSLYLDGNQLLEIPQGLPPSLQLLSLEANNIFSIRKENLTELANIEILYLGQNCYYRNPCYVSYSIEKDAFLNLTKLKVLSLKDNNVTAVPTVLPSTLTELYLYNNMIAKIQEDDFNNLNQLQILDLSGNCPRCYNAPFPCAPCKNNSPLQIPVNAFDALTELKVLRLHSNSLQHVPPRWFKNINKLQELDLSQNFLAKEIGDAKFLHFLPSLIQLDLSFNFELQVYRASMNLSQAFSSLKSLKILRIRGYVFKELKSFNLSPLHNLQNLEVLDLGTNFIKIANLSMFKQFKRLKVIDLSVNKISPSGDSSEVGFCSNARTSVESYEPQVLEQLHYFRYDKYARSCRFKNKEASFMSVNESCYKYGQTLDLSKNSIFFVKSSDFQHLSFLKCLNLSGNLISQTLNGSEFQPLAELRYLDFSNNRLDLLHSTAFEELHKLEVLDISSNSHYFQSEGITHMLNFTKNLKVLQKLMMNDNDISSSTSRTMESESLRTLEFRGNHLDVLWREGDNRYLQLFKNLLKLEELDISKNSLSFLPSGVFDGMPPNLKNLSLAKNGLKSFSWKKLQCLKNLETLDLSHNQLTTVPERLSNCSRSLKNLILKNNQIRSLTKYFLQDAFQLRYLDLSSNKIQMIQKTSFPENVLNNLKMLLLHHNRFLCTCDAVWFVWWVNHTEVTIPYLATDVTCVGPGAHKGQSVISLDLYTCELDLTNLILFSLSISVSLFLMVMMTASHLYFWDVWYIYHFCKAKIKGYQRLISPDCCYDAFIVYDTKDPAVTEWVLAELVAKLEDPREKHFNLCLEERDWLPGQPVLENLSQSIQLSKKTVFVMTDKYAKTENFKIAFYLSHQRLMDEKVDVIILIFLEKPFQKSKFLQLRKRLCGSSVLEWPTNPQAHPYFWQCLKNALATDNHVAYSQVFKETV
measurement.protocol: TLR7 inhibition reporter assay (HEK-Blue cells, SEAP reporter)
Assay type: cell-based
condition.set: HEK-Blue cells overexpressing human TLR7; stimulated with gardiquimod 7.5 μM; 22 hour incubation; SEAP readout
measured.quantity: IC50

CC(C)N1CCC(N2CCC(c3ccc4nc(-c5ccc(S(C)(=O)=O)cc5)cn4c3F)CC2)CC1 [Example 73] ... > 50 µM
COc1ccc(-c2nc3n(n2)CC(c2ccc(N4CC5CCC(C4)N5C(C)C)cc2)CC3C)cc1OC (stereo not drawn) [Example 152] ... > 50 µM
COc1ccc(-c2cn3c(n2)CCC(C2CCN(C4CCN(CC5CC5)CC4)CC2)C3)cc1OC (racemic) [Example 55] ... 1.6 µM
CS(=O)(=O)c1ccc(-c2cn3c(n2)CC[C@@H](C2CCN(C4CC5CCC(C4)N5CC4CC4)CC2)C3)cc1 (single isomer, unassigned) [Example 140] ... > 50 µM
COc1ccc(-c2cn3cc(C4CC5CCC(C4)N5C4CCN(C5CC5)CC4)cc(C)c3n2)cc1OC (single isomer, unassigned) [Example 25] ... 3.5 µM
COc1ccc(-c2cn3cc(-c4ccc(N5CCN(C6COC6)CC5)cc4)cc(C)c3n2)cc1OC [Example 64] ... > 25 µM

Origin of the recorded values: patent US12486267B2
